Items are presented alongside their recorded Cmax.
assay: Cmax in Balb/cA mouse at 50 mg/kg, po administered as single dose by reverse-phase ultra performance liquid chromatography; format: ADME, organism-based; set-up: dose 50 mg/kg, route oral; settings: in vivo
# value in µM; strip the unit string

Solved entries:
CC[C@@](O)(Cn1nncc1CCCCn1ccc(=O)[nH]c1=O)c1ccc(F)c(OCC2CC2)c1	49.8
CC[C@@](O)(Cn1nncc1CCCCn1ccc(=O)[nH]c1=O)c1cccc(OCC2CC2)c1	62.1

INPUT: I have this compound here, CC[C@@H](Cn1nncc1CCCCn1ccc(=O)[nH]c1=O)c1cccc(OCC2CC2)c1 , and I need its recorded Cmax.
OUTPUT: 8.69

---

test: Half life in Balb/cA mouse at 50 mg/kg, po administered as single dose by reverse-phase ultra performance liquid chromatography; format: ADME, organism-based; design: dose 50 mg/kg, route oral; conditions: in vivo
measure: half-life (min)
# value in min; strip the unit string

CC[C@@](O)(Cn1nncc1CCCCn1ccc(=O)[nH]c1=O)c1ccc(F)c(OCC2CC2)c1	60
CC[C@@](O)(Cn1nncc1CCCCn1ccc(=O)[nH]c1=O)c1cccc(OCC2CC2)c1	60

INPUT: I have this molecule here, CC[C@@H](Cn1nncc1CCCCn1ccc(=O)[nH]c1=O)c1cccc(OCC2CC2)c1 , and I need its recorded half-life.
OUTPUT: 30

---

Biological target: Deoxyuridine 5'-triphosphate nucleotidohydrolase, mitochondrial (Homo sapiens)
Sequence (P33316 whole entry): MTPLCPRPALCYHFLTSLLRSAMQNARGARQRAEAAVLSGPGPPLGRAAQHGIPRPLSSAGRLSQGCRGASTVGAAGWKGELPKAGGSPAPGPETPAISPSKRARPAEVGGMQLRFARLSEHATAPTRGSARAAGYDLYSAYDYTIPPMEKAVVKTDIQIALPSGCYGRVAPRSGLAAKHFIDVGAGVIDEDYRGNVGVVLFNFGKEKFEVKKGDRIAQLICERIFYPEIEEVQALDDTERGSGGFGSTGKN
Assay: Inhibition of human dUTPase assessed as reduction in [5-3H]dUMP production incubated for 15 mins by HPLC
measure: pIC50
Please note pIC50 is a logarithmic value: minus log10 of concentration in mol/L. Answer with that number alone.

Solved entries:
C[C@@H](Cn1nncc1CCCCn1ccc(=O)[nH]c1=O)c1cccc(OCC2CC2)c1	7.24
CC[C@@](O)(Cn1nncc1CCCCn1ccc(=O)[nH]c1=O)c1cccc(OCC(C)C)c1	6.26
CC[C@@H](Cn1nncc1CCCCn1ccc(=O)[nH]c1=O)c1cccc(OCC2CC2)c1	7.54
COc1ccccc1CCn1nncc1CCCCn1ccc(=O)[nH]c1=O	5.24
C=CCOc1cccc([C@@](O)(CC)Cn2nncc2CCCCn2ccc(=O)[nH]c2=O)c1	6.44

INPUT: I have this molecule here, CC[C@@](O)(Cn1nncc1CCCCn1ccc(=O)[nH]c1=O)c1cccc(OCC2(C)CC2)c1 , and I need its recorded pIC50.
OUTPUT: 6.20

INPUT: I have this molecule here, O=c1ccn(CCCCc2cnnn2CCc2cccc(OCC3CC3)c2)c(=O)[nH]1 , and I need its recorded pIC50.
OUTPUT: 6.68

INPUT: I have this molecule here, CC[C@H](Cn1nncc1CCCCn1ccc(=O)[nH]c1=O)c1cccc(OCC2CC2)c1 , and I need its recorded pIC50.
OUTPUT: 6.14

---

target: Deoxyuridine 5'-triphosphate nucleotidohydrolase, mitochondrial (Homo sapiens, UniProt P33316); assay: Inhibition of human dUTPase assessed as reduction in [5-3H]dUMP production incubated for 15 mins by HPLC
measure: pIC50
Please note pIC50 is a logarithmic value: minus log10 of concentration in mol/L. Answer with that number alone.

Solved entries:
CC[C@@](O)(Cn1nncc1CCCCn1ccc(=O)[nH]c1=O)c1cccc(OCC2CCC2)c1	6.82
C[C@H](Cn1nncc1CCCCn1ccc(=O)[nH]c1=O)c1cccc(OCC2CC2)c1	6.06
COc1cccc(CCn2nncc2CCCCn2ccc(=O)[nH]c2=O)c1	5.39
O=c1ccn(CCCCc2cnnn2C(c2ccccc2)c2ccccc2)c(=O)[nH]1	5.80
CC[C@@](O)(Cn1nncc1CCOCn1ccc(=O)[nH]c1=O)c1cccc(OCC2CC2)c1	6.77

INPUT: I have this compound here, O=c1ccn(CCCCc2cnnn2CCc2ccccc2)c(=O)[nH]1 , and I need its recorded pIC50.
OUTPUT: 5.46

INPUT: I have this compound here, CC[C@](O)(Cn1nncc1CCCCn1ccc(=O)[nH]c1=O)c1ccc(F)c(OCC2CC2)c1 , and I need its recorded pIC50.
OUTPUT: 6.46

---

Items are presented alongside their recorded AUC(0-t).
assay: AUC (0 to t) in Balb/cA mouse at 50 mg/kg, po administered as single dose by reverse-phase ultra performance liquid chromatography; type: ADME, organism-based; parameters: dose 50 mg/kg, route oral; conditions: plasma
# value in µM·h; strip the unit string

Solved entries:
CC[C@@H](Cn1nncc1CCCCn1ccc(=O)[nH]c1=O)c1cccc(OCC2CC2)c1	4.56
CC[C@@](O)(Cn1nncc1CCCCn1ccc(=O)[nH]c1=O)c1ccc(F)c(OCC2CC2)c1	57.3

Here's the next entry for you.
INPUT: I have this compound here, CC[C@@](O)(Cn1nncc1CCCCn1ccc(=O)[nH]c1=O)c1cccc(OCC2CC2)c1 , and I need its recorded AUC(0-t).
OUTPUT: 67.4

---

Target: Deoxyuridine 5'-triphosphate nucleotidohydrolase, mitochondrial (Homo sapiens, UniProt P33316)
Sequence (P33316 whole entry): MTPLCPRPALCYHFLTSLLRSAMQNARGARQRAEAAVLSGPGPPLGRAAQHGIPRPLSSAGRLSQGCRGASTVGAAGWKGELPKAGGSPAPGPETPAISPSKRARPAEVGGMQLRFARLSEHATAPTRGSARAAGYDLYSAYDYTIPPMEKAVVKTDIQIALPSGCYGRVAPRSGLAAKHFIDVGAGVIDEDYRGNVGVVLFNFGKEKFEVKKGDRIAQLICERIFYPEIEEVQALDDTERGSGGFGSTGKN
Experiment: Inhibition of human dUTPase assessed as reduction in [5-3H]dUMP production incubated for 15 mins by HPLC
measure: IC50 (nM)
# value in nM; strip the unit string

Solved entries:
CC[C@@](O)(Cn1nncc1CCCCn1ccc(=O)[nH]c1=O)c1cccc(OC2CCCC2)c1	210
O=c1ccn(CCCCc2cnnn2CCc2ccccc2OCC2CC2)c(=O)[nH]1	390
O=c1ccn(CCCCc2cnnn2CC(c2ccccc2)c2ccccc2)c(=O)[nH]1	740

INPUT: I have this molecule here, CC[C@@](O)(Cn1nncc1CCCCn1ccc(=O)[nH]c1=O)c1cccc(OCC2CC2)c1 , and I need its recorded IC50.
OUTPUT: 150

INPUT: I have this molecule here, O=c1ccn(CCCc2cnnn2CC(c2ccccc2)c2ccccc2)c(=O)[nH]1 , and I need its recorded IC50.
OUTPUT: 1300

INPUT: I have this molecule here, CC[C@@](O)(Cn1nncc1CCCCn1ccc(=O)[nH]c1=O)c1ccc(F)c(OCC2CC2)c1 , and I need its recorded IC50.
OUTPUT: 67

---

assay: Tmax in Balb/cA mouse at 50 mg/kg, po administered as single dose by reverse-phase ultra performance liquid chromatography; type: ADME, organism-based; design: dose 50 mg/kg, route oral; conditions: in vivo
Items are presented alongside their recorded Tmax.
# value in min; strip the unit string

Solved entries:
CC[C@@](O)(Cn1nncc1CCCCn1ccc(=O)[nH]c1=O)c1ccc(F)c(OCC2CC2)c1	60
CC[C@@H](Cn1nncc1CCCCn1ccc(=O)[nH]c1=O)c1cccc(OCC2CC2)c1	30

Here's the next entry for you.
INPUT: I have this compound here, CC[C@@](O)(Cn1nncc1CCCCn1ccc(=O)[nH]c1=O)c1cccc(OCC2CC2)c1 , and I need its recorded Tmax.
OUTPUT: 30

---

assay: Cytotoxicity against human HeLaS3 cells incubated for 72 hrs by crystal violet assay; assay type: functional, cell-based; conditions: HeLa S3, 72 h
Items are presented alongside their recorded pEC50.
Please note pEC50 is a logarithmic value: minus log10 of concentration in mol/L. Answer with that number alone.

Solved entries:
O=c1ccn(CCCCc2cnnn2CCc2cccc(OCC3CC3)c2)c(=O)[nH]1	4.08
CC[C@@](O)(Cn1nncc1CCCCn1ccc(=O)[nH]c1=O)c1ccc(F)c(OCC2CC2)c1	4.39

Here's the next entry for you.
INPUT: I have this compound here, CC[C@@H](Cn1nncc1CCCCn1ccc(=O)[nH]c1=O)c1cccc(OCC2CC2)c1 , and I need its recorded pEC50.
OUTPUT: 4.66

---

target: UniProtKB P33316; assay: Inhibition of human dUTPase assessed as reduction in [5-3H]dUMP production incubated for 15 mins by HPLC
measure: IC50

INPUT: I have this molecule here, CCOc1cccc([C@@](O)(CC)Cn2nncc2CCCCn2ccc(=O)[nH]c2=O)c1 , and I need its recorded IC50.
OUTPUT: > 1 µM

INPUT: I have this molecule here, COc1ccc(CCn2nncc2CCCCn2ccc(=O)[nH]c2=O)cc1 , and I need its recorded IC50.
OUTPUT: > 10 µM

INPUT: I have this molecule here, O=c1ccn(CCCc2cnnn2C(c2ccccc2)c2ccccc2)c(=O)[nH]1 , and I need its recorded IC50.
OUTPUT: > 10 µM

This collection of values is drawn from ChEMBL document CHEMBL2163292.
